Answer each item with its documented normalized growth.
Assay info: chemical genetic growth profiling, strain panel (AID 1159580);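 further: tested at 20 µM; growth read once vehicle control cultures reached saturation at 30 °C; 1 = growth at the plate median or of vehicle wells; lower values mean less growth of the strain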
Run conditions: S. cerevisiae deletion strains, growth OD, locus YJL134W, strain LCB3, hits give low values
About 2,000 (36%) of roughly 5,500 compounds were called active. Roughly 18% stayed inconclusive and do not appear here. The list shows a part of the results.
Respond using a number only.

// sample COc1cc2c(cc1OC)[C@@H]1C(=O)c3ccc4c(c3O[C@@H]1CO2)C=CC(C)(C)O4 , its normalized growth was 0.975

// sample CC(NCCc1ccc(O)cc1)C(O)c1ccc(O)cc1 (stereo not drawn) , its normalized growth was 0.99

// sample CC1CC2C3CCC4=CC(=O)C=C[C@]4(C)[C@@]3(F)[C@@H](O)C[C@]2(C)[C@@]1(O)C(=O)CO (stereo partly drawn) , its normalized growth was 0.99

// sample C[C@H]1OC(n2cc(F)c(=O)[nH]c2=O)C(O)[C@@H]1O (stereo partly drawn) , its normalized growth was 1.01

// sample O=C(O)c1cc2ccccc2c(Cc2c(O)c(C(=O)O)cc3ccccc23)c1O , its normalized growth was 0.99

// sample CN1CCC(=C2c3ccccc3CC(=O)c3sccc32)CC1 , its normalized growth was 1.01

// sample CN[C@@H](C)[C@@H](O)c1ccccc1 , its normalized growth was 0.98

// sample c1cncc(C2CCCCN2)c1 (stereo not drawn) , its normalized growth was 1.01

// sample COc1cc2c(cc1OC)[C@@H]1C(=O)c3ccc(O)c(CC=C(C)C)c3O[C@@H]1CO2 , its normalized growth was 0.978

// sample O=C(O)c1c2ccccc2cc2ccccc12 , its normalized growth was 1.01

// sample CC1=C(/C=C/C(C)=C/C=C/C(C)=C/C=C/C=C(C)/C=C/C=C(C)/C=C/C2=C(C)C(=O)C(O)CC2(C)C)C(C)(C)CC(O)C1=O (stereo not drawn) , its normalized growth was 0.98

// sample CC1CC2C3CC(F)C4=CC(=O)C=CC4(C)C3(F)C(O)CC2(C)C1(O)C(=O)CO (stereo not drawn) , its normalized growth was 1.02

// sample COc1cc2c(cc1OC)[C@@H]1C(=O)c3ccc4oc(C(C)C)cc4c3O[C@@H]1CO2 , its normalized growth was 1.01

// sample CC1=C(/C=C/C(C)=C/C=C/C(C)=C/C=C/C=C(C)/C=C/C=C(C)/C=C/C23OC2(C)CC(O)CC3(C)C)C(C)(C)CC(O)C1 (stereo not drawn) , its normalized growth was 1.01

// sample CC(=O)N[C@@H](CC(C)C)C(=O)O , its normalized growth was 0.984

// sample CO[C@H]1[C@H](O)[C@H](O[C@H]2CC[C@]3(C)C4CC[C@]5(C)C(C6=CC(=O)OC6)CC[C@]5(O)C4CC[C@@H]3C2)O[C@@H](C)[C@@H]1O (stereo partly drawn) , its normalized growth was 1.01

// sample CNC(C)[C@H](O)c1ccccc1 (stereo partly drawn) , its normalized growth was 1

// sample COc1ccc2c(c1)O[C@@H]1COc3cc(OC)c(OC)cc3[C@@H]1C2=O , its normalized growth was 0.935

---

Assay info: chemical genetic growth profiling, strain panel (AID 1159580);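 further: tested at 20 µM; growth read once vehicle control cultures reached saturation at 30 °C; 1 = growth at the plate median or of vehicle wells; lower values mean less growth of the strain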
Run conditions: S. cerevisiae deletion strains, growth OD, locus YML016C, strain PPZ1, hits give low values
The whole screen tested about 5,500 compounds, of which about 2,000 (36%) were called active. About 18% were inconclusive and are not listed. Some of the results follow.
Answer each item with its documented normalized growth.

// sample CCC(=O)O[C@H]1CCC2C3CCC4=CC(=O)CC[C@]4(C)C3CC[C@@]21C (some centres undefined) , its normalized growth was 0.982 (inactive)

// sample CNCCc1ccccn1 , its normalized growth was 1 (inactive)

// sample NC(=O)c1ccc[n+]([C@@H]2O[C@H](COP(=O)([O-])OP(=O)(O)OC[C@H]3O[C@@H](n4cnc5c(N)ncnc54)[C@H](O)[C@@H]3O)[C@@H](O)[C@H]2O)c1 , its normalized growth was 0.982 (inactive)

// sample CCOC(=O)[C@H](CCc1ccccc1)N[C@H]1CCc2ccccc2N(CC(=O)O)C1=O , its normalized growth was 0.98 (inactive)

// sample COC1=C(OC)C(=O)C(C/C=C(\C)CC/C=C(\C)CC/C=C(\C)CC/C=C(/C)CC/C=C(\C)CC/C=C(\C)CC/C=C(\C)CC/C=C(\C)CC/C=C(\C)CCC=C(C)C)=C(C)C1=O , its normalized growth was 1.01 (inactive)

// sample CC(Oc1ccccc1)C(=O)N[C@@H]1C(=O)N2[C@@H]1SC(C)(C)[C@@H]2C(=O)O (some centres undefined) , its normalized growth was 1.02 (inactive)

// sample CN1CCC(=C2c3ccccc3Sc3ccccc32)CC1 , its normalized growth was 0.998 (inactive)

// sample CC(=O)NC1SCCC1=O (centres undefined) , its normalized growth was 0.998 (inactive)

// sample COC1=CC(=O)C[C@@H](C)[C@]12Oc1c(Cl)c(OC)cc(OC)c1C2=O , its normalized growth was 0.991 (inactive)
